assay: Cytotoxicity assay in Vero E6 cells (neutral red uptake); assay type: cell-based; details: African green monkey; Vero E6 cells, 2 days at 37° C., neutral red uptake; read-out: Vero CC50
The threshold is 60 µM. Values of CC50 at 2 days beneath it are tagged Condition met; values meeting or exceeding it are tagged Condition not met.

Below, 3 compounds whose answers are already recorded.
smiles string | assigned label
COc1cccc(-c2cc([C@@H](C)NC(=O)c3cc(OCCN(C)C)ccc3C)c3ccccc3n2)c1 | Condition met
Cc1ccc(OCCN(C)C)cc1C(=O)N[C@H](C)c1cc(-c2cnn(CC(=O)N(C)C)c2)nc2ccccc12 | Condition not met
Cc1ccc(N2C[C@H]3CN(C)C[C@H]3C2)cc1C(=O)N[C@H](C)c1cc(-c2ccn(C)n2)nc2ccccc12 | Condition met

Lookup: Find out if reported CC50 at 2 days for `Cc1ccc(OCCN(C)C)cc1C(=O)N[C@H](C)c1cc(N2CCOCC2)nc2ccccc12` is less than 60 µM
Found: Condition not met

Lookup: Find out if reported CC50 at 2 days for `Cc1ccc(OC[C@@H]2CCCN2C)cc1C(=O)N[C@H](C)c1cc(-c2cnn(C)c2)nc2ccccc12` is less than 60 µM
Found: Condition not met

Lookup: Find out if reported CC50 at 2 days for `Cc1ccc(N2CCN(C)[C@H](C)C2)cc1C(=O)N[C@H](C)c1cc(-c2ccn(C)n2)nc2ccccc12` is less than 60 µM
Found: Condition met

====

test: Cytotoxicity assay in Vero E6 cells (neutral red uptake); format: cell-based; details: African green monkey; Vero E6 cells, 2 days at 37° C., neutral red uptake; read-out: Vero CC50
measured endpoint: CC50 at 2 days (µM)
Write the number in µM without appending the unit.

Answered cases to consult:
compound | CC50 at 2 days, µM
Cc1ccc(O[C@H]2CCN(C)C2)cc1C(=O)N[C@H](C)c1cc(-c2cnn(C)c2)nc2ccccc12 [Example 82] | 48.3
Cc1ccc(OCCN(C)C)cc1C(=O)N[C@H](C)c1cc(-c2cnn(C3CCC3)c2)nc2ccccc12 [Example 64] | 25.3
Cc1ccc(OCCN(C)C)cc1C(=O)N[C@H](C)c1cc(-c2ccc(N3CCN(C)CC3)s2)nc2ccccc12 [Example 48] | 15.4
Cc1ccc(OCCN(C)C)cc1C(=O)N[C@H](C)c1cc(-n2cncn2)nc2ccccc12 [Example 47] | 17.5
Cc1ccc(OCCN(C)C)cc1C(=O)N[C@H](C)c1cc(-c2ccn[nH]2)nc2ccccc12 [Example 15] | 63.2

Now look at this one.
Lookup: Fill in: CC50 at 2 days of Cc1ccc(N2CC[C@@H](N(C)C)C2)cc1C(=O)N[C@H](C)c1cc(-c2ccn(C)n2)nc2ccccc12 [Example 100] is ___
Found: 30.6

====

experiment: Cytotoxicity assay in Vero E6 cells (neutral red uptake); format: cell-based; settings: African green monkey; Vero E6 cells, 2 days at 37° C., neutral red uptake; read-out: Vero CC50
measured endpoint: CC50 at 2 days (µM)
Write the number in µM without appending the unit.

Answered cases to consult:
compound | unit spec | CC50 at 2 days
Cc1ccc(N2CCC(N(C)C)CC2)cc1C(=O)N[C@H](C)c1cc(-c2cnn(C)c2)nc2ccccc12 [Example 87] | µM | 73.8
Cc1ccc(OC[C@@H]2C[C@@H](F)CN2C)cc1C(=O)NC1(c2cc(-c3cnn(C)c3)nc3ccccc23)CC1 [Example 114] | µM | 51.3
Cc1ccc(OCCN(C)C)cc1C(=O)N[C@H](C)c1cc(-c2cnn(C(C)(C)C)c2)nc2ccccc12 [Example 65] | µM | 19.1

Now look at this one.
Lookup: Fill in: CC50 at 2 days of Cc1ccc(OCCN(C)C)cc1C(=O)N[C@H](C)c1cc(-c2cnn(CCO)c2)nc2ccccc12 [Example 22] is ___
Found: 153

Measured values drawn from patent US20240382494A1 for this set.
